Listed below: IC50 values for each entry.
target: recombinant full-length human hydroxyacid oxidase 1 (HAO1), the equivalents of hGOX (Homo sapiens (Human), UniProt Q9UJM8); test: In-vitro human glycolate oxidase (hGOX) assay (Amplex red fluorescence); conditions: 6 nM recombinant human GO, 85 μM glycolate, 10 min preincubation
Sequence (Q9UJM8 whole entry): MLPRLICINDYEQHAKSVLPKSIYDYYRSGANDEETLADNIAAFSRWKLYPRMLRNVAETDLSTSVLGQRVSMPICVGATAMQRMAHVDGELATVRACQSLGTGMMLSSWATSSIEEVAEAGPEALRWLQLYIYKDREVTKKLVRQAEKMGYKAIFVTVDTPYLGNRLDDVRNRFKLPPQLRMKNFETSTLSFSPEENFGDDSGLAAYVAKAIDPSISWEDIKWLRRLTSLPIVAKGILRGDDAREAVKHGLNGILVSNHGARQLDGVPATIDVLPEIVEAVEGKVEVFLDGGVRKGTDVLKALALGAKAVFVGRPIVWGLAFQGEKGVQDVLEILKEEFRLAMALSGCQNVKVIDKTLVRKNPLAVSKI
MEASUREMENT_TYPE: IC50 (nM)

SMILES_DATA	UNITS_OF_MEASURE	VALUE_RELATION_SIGN	QUANTITATIVE_RESULT
O=C(O)c1nn[nH]c1Oc1ccc(C#Cc2ccncc2)cc1	nM	=	4
N#Cc1ccc(C#Cc2cc(Oc3[nH]nnc3C(=O)O)ccc2F)cc1	nM	=	1
CC(C)(C)CC#Cc1cccc(Oc2[nH]nnc2C(=O)O)c1	nM	>	1000
Cn1ncc2ccc(C#Cc3ccc(Oc4[nH]nnc4C(=O)O)cc3)cc21	nM	=	2
COc1cccc(C#Cc2cccc(Oc3[nH]nnc3C(=O)O)c2)c1	nM	=	4
O=C(O)c1nn[nH]c1Nc1cccc(C#CCC2CC2)c1	nM	=	110
N#CCCC#Cc1cccc(Oc2[nH]nnc2C(=O)O)c1	nM	=	10
Cc1ccc(C#Cc2ccc(Oc3[nH]nnc3C(=O)O)cc2)cn1	nM	=	3
N#Cc1ccc(C#Cc2cc(F)cc(Oc3[nH]nnc3C(=O)O)c2)cc1	nM	=	3
Cn1cc(C#Cc2ccc(Oc3[nH]nnc3C(=O)O)cc2)cn1	nM	=	4
C#Cc1ccc(Oc2[nH]nnc2C(=O)O)cc1	nM	=	90
O=C(O)c1nn[nH]c1Nc1ccc(C#CCC2CC2)cc1	nM	=	230
CC(C)CC#Cc1cccc(Oc2[nH]nnc2C(=O)O)c1	nM	=	10
Cc1cccc(C#Cc2ccc(Oc3[nH]nnc3C(=O)O)cc2)n1	nM	=	5
Cn1ncc2c(C#Cc3cccc(Oc4[nH]nnc4C(=O)O)c3)cccc21	nM	=	2
CCOC(=O)c1nn[nH]c1Oc1cccc(C#CCC2CC2)c1	nM	>	1000
O=C(O)c1nn[nH]c1Oc1cccc(C#Cc2cn[nH]c2)c1	nM	=	6
O=C(O)c1nn[nH]c1Oc1ccc(C#Cc2cccnc2)cc1	nM	=	3
O=C(O)c1nn[nH]c1Oc1cccc(C#CC2CC2)c1	nM	=	9
N#Cc1ccc(C#Cc2ccc(Oc3[nH]nnc3C(=O)O)cc2F)cc1	nM	=	1
